FYI, the data here is from patent US7307101B2.

# protocolDetails: HET0016 levels in plasma and brain
# Type: in vivo
# testContext: plasma, iv; rat, 1 hr after i.v. 10 mg/kg, n=3
attributeMeasured: concentration at 1 h (ng/mL)
Form entry: value (ng/mL) — number only.

Consider the compound CCCCc1ccc(N=CNO)c(C)c1 and give its measured concentration at 1 h.
570

###

# testedOn: CYP3A4 (Homo sapiens, UniProt P08684)
# Sequence (P08684 whole entry): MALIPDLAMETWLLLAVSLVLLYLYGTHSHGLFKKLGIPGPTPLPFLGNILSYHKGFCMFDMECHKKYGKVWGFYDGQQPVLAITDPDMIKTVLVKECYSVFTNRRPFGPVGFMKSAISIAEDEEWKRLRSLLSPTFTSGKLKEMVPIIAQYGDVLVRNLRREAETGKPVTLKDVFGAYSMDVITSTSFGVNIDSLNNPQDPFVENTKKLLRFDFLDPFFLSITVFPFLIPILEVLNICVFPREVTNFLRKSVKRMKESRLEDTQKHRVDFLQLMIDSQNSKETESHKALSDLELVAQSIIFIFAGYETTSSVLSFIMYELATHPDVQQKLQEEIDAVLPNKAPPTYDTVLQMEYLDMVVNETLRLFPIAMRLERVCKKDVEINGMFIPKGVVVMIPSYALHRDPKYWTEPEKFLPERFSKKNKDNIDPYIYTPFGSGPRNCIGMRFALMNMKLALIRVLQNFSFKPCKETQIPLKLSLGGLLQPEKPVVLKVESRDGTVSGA
# protocolDetails: in vitro
# testContext: microsomes, % Inhibition (duplicate) CYP3A4
attributeMeasured: inhibition at 10 µM

Which inhibition at 10 µM value is on record for C#CCCCCCCCCCCCCCCCC(=O)O ?
20 to 30%
